Entry source: patent US20190085024A1

target: Calpain; assay: Calpain enzyme assay; settings: Ki by Morrison equation; pH 7.5, 5 mM CaCl2
pKi: −log10 of the molar value.
Returns one of satisfied or not satisfied; satisfied when pKi is >= 8.

compound	label-class
CC[C@H](C)[C@H](NC(=O)C(=O)C(Cc1ccccc1)NC(=O)C(Cc1ccccc1)NC(=O)Cc1ccccc1)C(=O)N1CCC[C@H]1C(=O)O (stereo partly drawn) [PHELIX156]	not satisfied
CC(NC(=O)C(Cc1ccccc1)NC(=O)Cc1ccccc1)C(=O)C(=O)NC(Cc1ccccc1)C(=O)NC(C)(C)C(=O)O (stereo not drawn) [PHELIX157]	not satisfied
CCCCC(=O)NC(Cc1ccccc1)C(=O)NC(C)C(=O)C(=O)NC(Cc1ccccc1)C(=O)NC(C)(C)C(N)=O (stereo not drawn) [PHELIX236]	not satisfied
CC[C@H](C)[C@H](NC(=O)C(=O)C(Cc1ccccc1)NC(=O)C(Cc1ccccc1)NC(=O)Cc1ccccc1)C(=O)N1CCCC1C(N)=O (stereo partly drawn) [PHELIX204]	not satisfied
CCC(C)C(NC(=O)C(CC(C)C)NC(=O)OCc1ccccc1)C(=O)C(=O)NC(CCCNC(N)=O)C(N)=O (stereo not drawn) [PHELIX341]	not satisfied
CCC(C)C(NC(=O)C(CC(C)C)NC(=O)OCc1ccccc1)C(=O)C(=O)NC(Cc1ccc2ccccc2c1)C(N)=O (stereo not drawn) [PHELIX309]	satisfied

###

target: Calpain; assay: Calpain enzyme assay; details: Ki by Morrison equation; pH 7.5, 5 mM CaCl2
Reported Ki by item:
measured-metric: Ki

molecule	value-measured
CCC(C)C(NC(=O)C(CC(C)C)NC(=O)CN1CCOCC1)C(=O)C(=O)NCC(=O)NC(Cc1ccc2ccccc2c1)C(N)=O (stereo not drawn) [PHELIX314]	2.44 nM
CC(NC(=O)C(Cc1ccccc1)NC(=O)Cc1ccccc1)C(=O)C(=O)NC(CCCNC(=N)N)C(=O)NC(C)(C)C(N)=O (stereo not drawn) [PHELIX234]	> 10000 nM
CCC(C)C(NC(=O)C(CC(C)C)NC(=O)OCc1ccccc1)C(=O)C(=O)NC(CC(N)=O)C(=O)NC(Cc1ccc2ccccc2c1)C(N)=O (stereo not drawn) [PHELIX316]	8.01 nM

###

molecular target: Cathepsin L (Homo sapiens, UniProt P07711)
Sequence (P07711 114-333, species assumed): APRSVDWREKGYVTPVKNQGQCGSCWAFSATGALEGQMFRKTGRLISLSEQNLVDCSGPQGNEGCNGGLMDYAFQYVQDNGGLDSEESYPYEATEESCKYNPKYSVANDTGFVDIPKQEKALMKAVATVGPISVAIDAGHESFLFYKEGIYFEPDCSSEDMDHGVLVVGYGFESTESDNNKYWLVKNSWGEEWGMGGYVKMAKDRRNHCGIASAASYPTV
measured-metric: Ki (nM)

> print(dat)
                                   molecule  unit.abbreviation  value.measured
1  CC(NC(=O)C(Cc1ccc(F)cc1)NC(=O)Cc1ccccc1)C(=O)C(=O)NC(Cc1ccccc1)C(=O)NC(C)(C)C(N)=O (stereo not drawn)                 nM            15.4
2  CC[C@H](C)[C@H](NC(=O)C(=O)C(Cc1ccccc1)NC(=O)C(Cc1ccccc1)NC(=O)Cc1ccccc1)C(=O)N1CCCC1C(N)=O (stereo partly drawn)                 nM            0.01
3  C=CCOC(=O)NCCCCC(NC(=O)C(=O)C(NC(=O)C(CC(C)C)NC(=O)C(Cc1ccccc1)NC(=O)OCc1ccccc1)C(C)CC)C(N)=O (stereo not drawn)                 nM            4.13

###

target: Calpain; test: Calpain enzyme assay; conditions: Ki by Morrison equation; pH 7.5, 5 mM CaCl2
*1 amine or outer side, *2 acyl side, *3 side chain or, on linkers, in order; H or OH if unused. Where a SMILES comes first, the peptide text is derived from it. [ ]: non-standard residue; d: D form. The star is where a group is joined. ξ: configuration not given here. ξ3Amino2oxobutanoyl = CC(N[*:1])C(=O)C(=O)[*:2]; 2Nal = N[CH](Cc1ccc2ccccc2c1)C(=O)O; Cbz = O=C(OCc1ccccc1)*

compound	unit-abbreviation	comparative-sign	Ki
CC(C)CC(NC(=O)C(Cc1ccccc1)NC(=O)OCc1ccccc1)C(=O)NC(C)C(=O)C(=O)NCC(=O)NC(Cc1ccc2ccccc2c1)C(N)=O (stereo not drawn) [PHELIX258] (Cbz-FL[ξ3Amino2oxobutanoyl]G[2Nal]-NH2; configuration not given here)	nM	=	1.9
CC(C)CC(NC(=O)C(Cc1ccccc1)NC(=O)OCc1ccccc1)C(=O)NC(Cc1ccccc1)C(=O)C(=O)NC(CCCNC(=N)N)C(N)=O (stereo not drawn) [PHELIX339]	nM	=	2.18
CC(NC(=O)C(Cc1ccccc1)NC(=O)Cc1ccccc1)C(=O)C(=O)NC(CC1CC1)C(=O)NC(C)(C)C(=O)O (stereo not drawn) [PHELIX166]	nM	>	100000
CCC(C)C(NC(=O)C(CC(C)C)NC(=O)OCc1ccccc1)C(=O)C(=O)NC(C)C(=O)NC(Cc1ccc2ccccc2c1)C(N)=O (stereo not drawn) [PHELIX295]	nM	=	2.05
CC(NC(=O)C(Cc1ccccc1)NC(=O)Cc1ccccc1)C(=O)C(=O)NC(Cc1ccccc1C(F)(F)F)C(=O)NC(Cc1ccc(-c2ccccc2)cc1)C(N)=O (stereo not drawn) [PHELIX265]	nM	>	10000
CCC(C)C(NC(=O)OCc1ccccc1)C(=O)C(=O)NCC(=O)NC(Cc1ccc2ccccc2c1)C(N)=O (stereo not drawn) [PHELIX325]	nM	=	1210

###

biological target: Cathepsin B (Homo sapiens); test: Cathepsin B enzyme assay; settings: Cat B (μM), Ki by Morrison equation; pH 6.0, substrate Z-Phe-Arg-Amc
*1 amine or outer side, *2 acyl side, *3 side chain or, on linkers, in order; H or OH if unused. Where a SMILES comes first, the peptide text is derived from it. [ ]: non-standard residue; d: D form. The star is where a group is joined. ξ: configuration not given here. ξ3Amino2oxobutanoyl = CC(N[*:1])C(=O)C(=O)[*:2]; 2Nal = N[CH](Cc1ccc2ccccc2c1)C(=O)O; X1 = CCC(C)C(N[*:1])C(=O)C(=O)[*:2]; Cbz = O=C(OCc1ccccc1)*
Rule: Ki below 0.2 µM gives TRUE. Equal to or above 0.2 µM gives FALSE.

compound	label-class
CCC(C)C(NC(=O)C(=O)C(C)NC(=O)C(Cc1ccc(-c2ccccc2)cc1)NC(=O)Cc1ccccc1)C(=O)NC(C)(C)C(=O)O (stereo not drawn) [PHELIX165]	TRUE
CCCCC(NC(=O)C(=O)C(C)NC(=O)C(Cc1ccccc1)NC(=O)Cc1ccccc1)C(=O)NC(C)(C)C(N)=O (stereo not drawn) [PHELIX242]	FALSE
CC(C)CC(NC(=O)OCc1ccccc1)C(=O)NC(C)C(=O)C(=O)NCCC(=O)NC(Cc1cccc(C#N)c1)C(N)=O (stereo not drawn) [PHELIX185]	FALSE
CC(C)CC(NC(=O)C(Cc1ccccc1)NC(=O)OCc1ccccc1)C(=O)NC(C)C(=O)C(=O)NCC(=O)NC(Cc1ccc2ccccc2c1)C(N)=O (stereo not drawn) [PHELIX258] (Cbz-FL[ξ3Amino2oxobutanoyl]G[2Nal]-NH2; configuration not given here)	FALSE
CC[C@H](C)[C@H](NC(=O)C(=O)C(Cc1ccccc1)NC(=O)C(Cc1ccccc1)NC(=O)Cc1ccccc1)C(=O)N1CCC[C@H]1C(=O)O (stereo partly drawn) [PHELIX156]	TRUE
CC(NC(=O)C(Cc1ccccc1)NC(=O)Cc1ccccc1)C(=O)C(=O)NC(Cc1ccccc1F)C(=O)NC(Cc1ccc(-c2ccccc2)cc1)C(N)=O (stereo not drawn) [PHELIX263]	FALSE
CC(C)CC(NC(=O)OCc1ccccc1)C(=O)NC(C)C(=O)C(=O)NCC(=O)NC(Cc1ccc2ccccc2c1)C(N)=O (stereo not drawn) [PHELIX184]	FALSE
CC(C)CC(NC(=O)OCc1ccccc1)C(=O)NC(C)C(=O)C(=O)N1CCC(C(=O)NC(Cc2ccccc2)C(N)=O)CC1 (stereo not drawn) [PHELIX186]	FALSE
CCC(C)C(NC(=O)C(CC(C)C)NC(=O)OCc1ccccc1)C(=O)C(=O)NC(Cc1ccc2ccccc2c1)C(N)=O (stereo not drawn) [PHELIX309]	FALSE
CC(NC(=O)C(Cc1ccccc1)NC(=O)Cc1ccccc1)C(=O)C(=O)NC(CC1CC1)C(=O)NC(Cc1ccc(-c2ccccc2)cc1)C(N)=O (stereo not drawn) [PHELIX260]	TRUE
CC(NC(=O)C(Cc1cccnc1)NC(=O)Cc1ccccc1)C(=O)C(=O)NC(Cc1ccccc1)C(=O)NC(C)(C)C(N)=O (stereo not drawn) [PHELIX211]	FALSE
CCC(C)C(NC(=O)C(=O)C(C)NC(=O)Cc1ccccc1)C(=O)NC(C)(C)C(=O)O (stereo not drawn) [PHELIX132]	FALSE
CC(NC(=O)C(Cc1ccccc1)NC(=O)Cc1ccccc1)C(=O)C(=O)NC(Cc1ccccc1)C(=O)NC(C)(C)C(=O)NCCc1ccccc1 (stereo not drawn) [PHELIX230]	FALSE
CC(NC(=O)C(Cc1ccccc1)NC(=O)Cc1ccccc1)C(=O)C(=O)NC(Cc1ccccc1)C(=O)NC(Cc1ccc2ccccc2c1)C(N)=O (stereo not drawn) [PHELIX220]	FALSE
CCC(C)C(NC(=O)C(CC(C)C)NC(=O)CN1CCOCC1)C(=O)C(=O)NCC(=O)NC(Cc1ccc2ccccc2c1)C(N)=O (stereo not drawn) [PHELIX314]	FALSE
CCC(C)C(NC(=O)C(CC(C)C)NC(=O)OCc1ccccc1)C(=O)C(=O)N1CC(C(=O)NC(Cc2ccc3ccccc3c2)C(N)=O)C1 (stereo not drawn) [PHELIX297]	FALSE
CCC(C)C(NC(=O)C(CC(C)C)NC(=O)C(Cc1ccccc1)NC(=O)OCc1ccccc1)C(=O)C(=O)NC(CCCNC(=N)N)C(N)=O (stereo not drawn) [PHELIX268]	TRUE
CC(NC(=O)C(Cc1ccccc1)NC(=O)Cc1cccc(F)c1)C(=O)C(=O)NC(Cc1ccccc1)C(=O)NC(C)(C)C(N)=O (stereo not drawn) [PHELIX227]	TRUE
CCC(C)C(NC(=O)C(=O)C(C)NC(=O)CCNC(=O)OCc1ccccc1)C(=O)NC(C)(C)C(=O)O (stereo not drawn) [PHELIX164]	FALSE
CC(NC(=O)C(Cc1ccccc1)NC(=O)Cc1ccccc1)C(=O)C(=O)NC(Cc1cccc(F)c1)C(=O)NC(Cc1ccc(-c2ccccc2)cc1)C(N)=O (stereo not drawn) [PHELIX266]	FALSE
CC(NC(=O)C(Cc1ccccc1)NC(=O)Cc1ccccc1)C(=O)C(=O)NC(Cc1ccccc1)C(=O)NC(C)(C)C(=O)NCCN1CCOCC1 (stereo not drawn) [PHELIX231]	FALSE
CC(NC(=O)C(Cc1ccccc1)NC(=O)Cc1ccccc1)C(=O)C(=O)NC(CC1CCCCC1)C(=O)NC(Cc1ccc(-c2ccccc2)cc1)C(N)=O (stereo not drawn) [PHELIX259]	FALSE
CCC(C)C(NC(=O)C(CC(C)C)NC(=O)C(Cc1ccccc1)NC(=O)OCc1ccccc1)C(=O)C(=O)NCC(=O)NC(Cc1ccc2ccccc2c1)C(N)=O (stereo not drawn) [PHELIX270] (Cbz-FL[X1]G[2Nal]-NH2; configuration not given here)	FALSE
